# assay info: Plasma kinetics of piroxicam in the rabbit after oral administration
# Type: in vivo, male New Zealand White rabbits
# experimental parameters: plasma, 10 mg/kg of active ingredient, 24 h, mean
parameter: concentration at 24 h (ng/mL)
Could you give me the number in ng/mL? Just the number is fine.

*Q* Quick check: concentration at 24 h of CN1C(C(=O)Nc2ccccn2)=C(O)c2ccccc2S1(=O)=O [Piroxicam] ?
*A* 300

###

# assay info: Plasma kinetics of piroxicam in the dog after oral administration
# Parameters: species or system Beagle dogs
# experimental parameters: in vivo, 10 mg/kg of active ingredient, 72 h, mean
parameter: concentration at 72 h (ng/mL)
Could you give me the number in ng/mL? Just the number is fine.

*Q* Quick check: concentration at 72 h of "CN1C(C(=O)Nc2ccccn2)=C(O)c2ccccc2S1(=O)=O" ?
*A* 3000

###

# assay info: Plasma kinetics of piroxicam in the dog after oral administration
# Design: species or system Beagle dogs
# experimental parameters: in vivo, 10 mg/kg of active ingredient, 0.50 h, mean
parameter: concentration at 0.5 h (ng/mL)
Could you give me the number in ng/mL? Just the number is fine.

*Q* Quick check: concentration at 0.5 h of "CN1C(C(=O)Nc2ccccn2)=C(O)c2ccccc2S1(=O)=O" ?
*A* 2800

###

# assay info: Plasma kinetics of piroxicam in the dog after oral administration
# Design: species or system Beagle dogs
# experimental parameters: in vivo, 10 mg/kg of active ingredient, 4 h, mean
parameter: concentration at 4 h (ng/mL)
Could you give me the number in ng/mL? Just the number is fine.

*Q* Quick check: concentration at 4 h of CN1C(C(=O)Nc2ccccn2)=C(O)c2ccccc2S1(=O)=O [Piroxicam] ?
*A* 18900

###

# assay info: Plasma kinetics of piroxicam in the rabbit after oral administration
# Assay type: in vivo, male New Zealand White rabbits
# experimental parameters: plasma, 10 mg/kg of active ingredient, 0.50 h, mean
parameter: concentration at 0.5 h

*Q* Quick check: concentration at 0.5 h of "CN1C(C(=O)Nc2ccccn2)=C(O)c2ccccc2S1(=O)=O" ?
*A* 4300 ng/mL

###

# assay info: Plasma kinetics of piroxicam in the dog after oral administration
# Parameters: species or system Beagle dogs
# experimental parameters: in vivo, 10 mg/kg of active ingredient
parameter: Tmax
# do not omit the unit; it follows the number

*Q* Quick check: Tmax of "CN1C(C(=O)Nc2ccccn2)=C(O)c2ccccc2S1(=O)=O" ?
*A* 1.8 h

###

# assay info: Plasma kinetics of piroxicam in the dog after oral administration
# Set-up: species or system Beagle dogs
# experimental parameters: in vivo, 10 mg/kg of active ingredient, mean
parameter: Cmax (ng/mL)
Could you give me the number in ng/mL? Just the number is fine.

*Q* Quick check: Cmax of CN1C(C(=O)Nc2ccccn2)=C(O)c2ccccc2S1(=O)=O [Piroxicam] ?
*A* 20000

###

# assay info: Gastrolesive action in rats and therapeutic index UD0/ED30
# experimental parameters: rat, in vivo, piroxicam = 1, read-out: Relative therapeutic index
parameter: selectivity ratio

*Q* Quick check: selectivity ratio of CN1C(C(=O)Nc2ccccn2)=C(O)c2ccccc2S1(=O)=O [Piroxicam] ?
*A* 1

###

# assay info: Plasma kinetics of piroxicam in the dog after oral administration
# Design: species or system Beagle dogs
# experimental parameters: in vivo, 10 mg/kg of active ingredient, mean
parameter: AUC(0-t) at 2 h (ng·h/mL)
Could you give me the number in ng·h/mL? Just the number is fine.

*Q* Quick check: AUC(0-t) at 2 h of "CN1C(C(=O)Nc2ccccn2)=C(O)c2ccccc2S1(=O)=O" ?
*A* 20400

###

# assay info: Plasma kinetics of piroxicam in the dog after oral administration
# Design: species or system Beagle dogs
# experimental parameters: in vivo, 10 mg/kg of active ingredient, 8 h, mean
parameter: concentration at 8 h (µg/mL)
Could you give me the number in µg/mL? Just the number is fine.

*Q* Quick check: concentration at 8 h of "CN1C(C(=O)Nc2ccccn2)=C(O)c2ccccc2S1(=O)=O" ?
*A* 14.2

###

# assay info: Plasma kinetics of piroxicam in the rabbit after oral administration
# Format: in vivo, male New Zealand White rabbits
# experimental parameters: plasma, 10 mg/kg of active ingredient, mean
parameter: Cmax

*Q* Quick check: Cmax of "CN1C(C(=O)Nc2ccccn2)=C(O)c2ccccc2S1(=O)=O" ?
*A* 11700 ng/mL

###

# assay info: Plasma kinetics of piroxicam in the rabbit after oral administration
# Format: in vivo, male New Zealand White rabbits
# experimental parameters: plasma, 10 mg/kg of active ingredient, 1 h, mean
parameter: concentration at 1 h (ng/mL)
Could you give me the number in ng/mL? Just the number is fine.

*Q* Quick check: concentration at 1 h of "CN1C(C(=O)Nc2ccccn2)=C(O)c2ccccc2S1(=O)=O" ?
*A* 7400

###

# assay info: Plasma kinetics of piroxicam in the rabbit after oral administration
# Format: in vivo, male New Zealand White rabbits
# experimental parameters: plasma, 10 mg/kg of active ingredient, 4 h, mean
# Experimental: For these investigations, male New Zealand White rabbits, weighing 2.5-3.0 kg were employed. The animals were kept at constant temperature and fastened for the 17 hours preceeding the experiments. Water was given ad libitum. […] The determination of the plasma levels of the active principle, at the different times since the administration, was carried out by High Pressure Liquid Chromatography (HPLC).
parameter: concentration at 4 h (ng/mL)
Could you give me the number in ng/mL? Just the number is fine.

*Q* Quick check: concentration at 4 h of CN1C(C(=O)Nc2ccccn2)=C(O)c2ccccc2S1(=O)=O [Piroxicam] ?
*A* 10100

###

# assay info: Plasma kinetics of piroxicam in the dog after oral administration
# Parameters: species or system Beagle dogs
# experimental parameters: in vivo, 10 mg/kg of active ingredient, 24 h, mean
# Procedure: The dogs were kept at constant temperature and fastened at least for 17 hours before the beginning of the experiment. Water was available ad libitum. The two substances to be investigated were orally administered at a dosage corresponding to 10 mg/kg of active ingredient, according to a crossover scheme. The determination of the plasma concentrations of the active ingredient, at a different time intervals since the administration, was carried out by High Pressure Liquid Chromatography (HPLC).
parameter: concentration at 24 h (ng/mL)
Could you give me the number in ng/mL? Just the number is fine.

*Q* Quick check: concentration at 24 h of "CN1C(C(=O)Nc2ccccn2)=C(O)c2ccccc2S1(=O)=O" ?
*A* 11500

###

# assay info: Plasma kinetics of piroxicam in the rabbit after oral administration
# Assay type: in vivo, male New Zealand White rabbits
# experimental parameters: plasma, 10 mg/kg of active ingredient, mean
parameter: AUC(0-t) at 2 h

*Q* Quick check: AUC(0-t) at 2 h of CN1C(C(=O)Nc2ccccn2)=C(O)c2ccccc2S1(=O)=O [Piroxicam] ?
*A* 13200 ng·h/mL

###

# assay info: Plasma kinetics of piroxicam in the dog after oral administration
# Parameters: species or system Beagle dogs
# experimental parameters: in vivo, 10 mg/kg of active ingredient, 48 h, mean
parameter: concentration at 48 h (ng/mL)
Could you give me the number in ng/mL? Just the number is fine.

*Q* Quick check: concentration at 48 h of "CN1C(C(=O)Nc2ccccn2)=C(O)c2ccccc2S1(=O)=O" ?
*A* 9200

###

# assay info: Plasma kinetics of piroxicam in the rabbit after oral administration
# Type: in vivo, male New Zealand White rabbits
# experimental parameters: plasma, 10 mg/kg of active ingredient, 8 h, mean
parameter: concentration at 8 h (ng/mL)
Could you give me the number in ng/mL? Just the number is fine.

*Q* Quick check: concentration at 8 h of "CN1C(C(=O)Nc2ccccn2)=C(O)c2ccccc2S1(=O)=O" ?
*A* 6500

###

# assay info: Dissolution test in water, Dissolution Tester, 25° C.
parameter: solubility at 0.5 h (µg/mL)
Could you give me the number in µg/mL? Just the number is fine.

*Q* Quick check: solubility at 0.5 h of "CN1C(C(=O)Nc2ccccn2)=C(O)c2ccccc2S1(=O)=O" ?
*A* 111

###

# assay info: Plasma kinetics of piroxicam in the dog after oral administration
# Parameters: species or system Beagle dogs
# experimental parameters: in vivo, 10 mg/kg of active ingredient, mean
parameter: AUC(0-t) at 72 h (µg·h/mL)
Could you give me the number in µg·h/mL? Just the number is fine.

*Q* Quick check: AUC(0-t) at 72 h of "CN1C(C(=O)Nc2ccccn2)=C(O)c2ccccc2S1(=O)=O" ?
*A* 724

###

# assay info: Plasma kinetics of piroxicam in the dog after oral administration
# Parameters: species or system Beagle dogs
# experimental parameters: in vivo, 10 mg/kg of active ingredient, 1 h, mean
parameter: concentration at 1 h (ng/mL)
Could you give me the number in ng/mL? Just the number is fine.

*Q* Quick check: concentration at 1 h of CN1C(C(=O)Nc2ccccn2)=C(O)c2ccccc2S1(=O)=O [Piroxicam] ?
*A* 12700
